ASSAYED TARGET: BACE-1 enzyme (Homo sapiens, UniProt P56817)
Construct: purchased R & D Systems 931AS
Sequence (P56817 46-457 limits assumed): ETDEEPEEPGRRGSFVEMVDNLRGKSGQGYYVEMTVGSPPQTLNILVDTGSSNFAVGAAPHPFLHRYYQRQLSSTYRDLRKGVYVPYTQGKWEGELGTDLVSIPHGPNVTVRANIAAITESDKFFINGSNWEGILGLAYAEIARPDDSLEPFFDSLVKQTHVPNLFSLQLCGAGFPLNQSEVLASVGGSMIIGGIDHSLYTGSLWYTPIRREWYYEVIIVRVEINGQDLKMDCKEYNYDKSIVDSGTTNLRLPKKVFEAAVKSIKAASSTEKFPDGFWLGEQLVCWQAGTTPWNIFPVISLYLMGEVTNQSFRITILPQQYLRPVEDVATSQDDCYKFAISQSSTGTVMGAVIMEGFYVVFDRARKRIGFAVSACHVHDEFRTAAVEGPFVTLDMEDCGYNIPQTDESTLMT
PROTOCOL NOTES: BACE Fluorescence Resonance Energy Transfer (FRET) Assay
Type: biochemical
EXPERIMENTAL PARAMETERS: pH 4-4.5, 30 min pre-incubation, about 1.5 hours reaction
Would you kindly list IC50 for each of these compounds?
Numbers only, in µM.

>  <SMILES REPRESENTATION>
CC(C)c1cccc2nc(C(=O)Nc3nc4cc(-c5cccc(OC(F)(F)F)c5)ccc4[nH]3)cn12

>  <SCALE UNIT>
µM

>  <IC50>
0.83

$$$$

Here are 3 compounds. What values of IC50 were reported for them?
1. Cc1c(N2CC[C@@H](O)C2)ccc2nc(C(=O)Nc3nc4cc(-c5cc(F)cc(Cl)c5)ccc4[nH]3)cn12
2. Cc1cccc2nc(C(=O)Nc3nc4cc(-c5cc(C(F)(F)F)ccc5Cl)ccc4[nH]3)cn12
3. Cc1cccc2nc(C(=O)Nc3nc4cc(-c5ccc(C(C)(C)C)cc5)ccc4[nH]3)cn12

# output
[0.49, 0.53, 0.61]
